- STUDY SYSTEM: T1, FrmR (Salmonella enterica serovar Typhimurium …, UniProt A0A719I766 1-91)
- T1 sequence: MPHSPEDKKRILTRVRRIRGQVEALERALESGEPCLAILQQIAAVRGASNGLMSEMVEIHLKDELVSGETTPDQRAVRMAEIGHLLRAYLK
- PROCEDURE DETAILS: fluorescence anisotropy; apo, 5 mM EDTA; 10 nM DNA; 2 tetramers:DNA, equal affinity; 10 mM HEPES pH 7.0, 60 mM NaCl, 240 mM KCl, 25 C, anaerobic; 5 mM EDTA (apo) or ZnCl2 (5 uM in text, 20 uM in Table 2)
- STUDY CONDITIONS: protein: recombinant; tags: none stated (pET29a NdeI; reverse primer carries native stop); chain copies: 8; label: 5' HEX on strand 1; blunt
MEASURE: pKd
# log scale: pKd equals minus log10 of the concentration in mol/L

Enquiry: Query (binder): frmRAPro (dsDNA) DNA 1: TTCTGATAGTATACCCCCCTATAGTATATGGAG DNA 2: CTCCATATACTATAGGGGGGTATACTATCAGAA ; field requested: pKd
Return: 7.00
